molecular target: Tyrosyl-tRNA synthetase, putative (Trypanosoma cruzi (strain CL Brener)) (UniProt Q4DSP6); assay: Trypanosoma cruzi tyrosyl tRNA synthetase (TcYRS) SOP; assay type: functional; design: scale not given: direction of the effect not stated beside the values; details: 30 µM
Sequence (Q4DSP6 as listed by the source): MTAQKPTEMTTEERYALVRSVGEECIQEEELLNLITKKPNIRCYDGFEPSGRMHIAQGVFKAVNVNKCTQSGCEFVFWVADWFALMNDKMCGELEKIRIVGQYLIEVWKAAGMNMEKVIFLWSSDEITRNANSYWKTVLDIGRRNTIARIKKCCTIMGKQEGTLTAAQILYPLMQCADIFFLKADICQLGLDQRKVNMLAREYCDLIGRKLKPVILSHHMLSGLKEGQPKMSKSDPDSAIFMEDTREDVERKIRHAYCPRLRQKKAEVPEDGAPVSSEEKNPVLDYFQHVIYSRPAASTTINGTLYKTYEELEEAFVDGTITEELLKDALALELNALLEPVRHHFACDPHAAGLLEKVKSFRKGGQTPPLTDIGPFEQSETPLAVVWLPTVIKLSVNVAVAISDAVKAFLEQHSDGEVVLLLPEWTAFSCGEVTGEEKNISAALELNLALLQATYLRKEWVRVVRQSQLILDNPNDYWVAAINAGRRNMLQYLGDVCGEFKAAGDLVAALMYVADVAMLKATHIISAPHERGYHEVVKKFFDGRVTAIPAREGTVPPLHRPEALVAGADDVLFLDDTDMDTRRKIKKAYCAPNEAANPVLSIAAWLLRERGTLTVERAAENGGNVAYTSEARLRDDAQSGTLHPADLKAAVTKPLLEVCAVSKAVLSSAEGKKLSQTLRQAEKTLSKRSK
For each record, write down the corresponding Percent Effect.
Note: unit % is implicit; provide only the numeric part.

**Q:** Reported Percent Effect for CN(C)Cc1nc(C(C)(C)NC(=O)C2CC(=O)N(CC3CC3)C2)no1 (stereo not drawn) : what is it?
**A:** 1.22

**Q:** Reported Percent Effect for O=S(=O)(N1CCCC1)N1CCCCC1CCc1ccccc1 (stereo not drawn) : what is it?
**A:** -4.88

**Q:** Reported Percent Effect for Cc1n[nH]c(=O)c2c(NC(=O)CN3CCCC(C(F)(F)F)C3)oc(C)c12 (stereo not drawn) : what is it?
**A:** 22.9

**Q:** Reported Percent Effect for c1ccc2oc(CCCN3CCOC(Cn4cccn4)C3)nc2c1 (stereo not drawn) : what is it?
**A:** 7.06

**Q:** Reported Percent Effect for Cn1cccc1C1CCCN1C(=O)NCCCn1cccn1 (stereo not drawn) : what is it?
**A:** 8.64

**Q:** Reported Percent Effect for CC(C)N1CCN(C(=O)Nc2cnn(CC(N)=O)c2)CC1 : what is it?
**A:** 22.9

**Q:** Reported Percent Effect for Cc1ccc(Cl)cc1N1CCC(CNC(=O)CCn2ccnn2)C1 (stereo not drawn) : what is it?
**A:** 18.1

**Q:** Reported Percent Effect for Cn1ccc(C(=O)N2CCN(c3ncccn3)CC2)cc1=O : what is it?
**A:** 11.1

**Q:** Reported Percent Effect for Cc1noc(C)c1C(=O)NCc1ccnc(OCC(F)(F)F)c1 : what is it?
**A:** 9.76

**Q:** Reported Percent Effect for Cn1nc(C2CCCN(Cc3cccc(F)c3)C2)c2nccnc21 (stereo not drawn) : what is it?
**A:** 16.9

**Q:** Reported Percent Effect for Cc1nc(C)n(CC2CN(CCOc3ccccc3F)CCO2)n1 (stereo not drawn) : what is it?
**A:** 0

**Q:** Reported Percent Effect for CN(C)C(=O)[C@@H]1C[C@@H]2CCN(Cc3nccs3)C[C@@H]2O1 : what is it?
**A:** 7.69

**Q:** Reported Percent Effect for CC1CCCCN1Cc1ccc(-c2ccccc2C(=O)O)cc1 (stereo not drawn) : what is it?
**A:** 2.5

**Q:** Reported Percent Effect for O=C(c1cc(C2CC2)on1)N1CCCC(n2cncn2)C1 (stereo not drawn) : what is it?
**A:** 22.9

**Q:** Reported Percent Effect for COc1ccc(C(C(=O)O)N2CCCN(C3CCCC3)CC2)cc1OC (stereo not drawn) : what is it?
**A:** -1.24

**Q:** Reported Percent Effect for CCOc1ncccc1NC(=O)N1CCN(c2cccc(C)c2C)CC1 : what is it?
**A:** 13.4

**Q:** Reported Percent Effect for c1cnn(CC2CN(Cc3ccc(-n4ccnc4)cc3)CCO2)c1 (stereo not drawn) : what is it?
**A:** 24.1

**Q:** Reported Percent Effect for Cc1ccc(NC2CCN(C(=O)c3cnc(C)s3)CC2)nn1 : what is it?
**A:** 12.8

**Q:** Reported Percent Effect for Cc1cccc(NC2CCN(C(=O)Nc3cc(C)on3)CC2)n1 : what is it?
**A:** 16.5

**Q:** Reported Percent Effect for Cc1nc(-c2ccccc2F)sc1C(=O)N1CCN(C)CC1 : what is it?
**A:** 12.2

**Q:** Reported Percent Effect for COc1cccc(-c2nccnc2C2CCN(C(C)=O)CC2)c1 : what is it?
**A:** 14.3

**Q:** Reported Percent Effect for Cc1ccc(C(=O)N2CCN(Cc3ccsc3)CC2)n1C : what is it?
**A:** 7.69

**Q:** Reported Percent Effect for CC(C)c1nc2c(n1C)CCN(CC(=O)Nc1nccs1)C2 : what is it?
**A:** 21.2

**Q:** Reported Percent Effect for CC(C)c1cc(NC(=O)CN2CCc3cncnc3C2)on1 : what is it?
**A:** 21.9

**Q:** Reported Percent Effect for COCCN1C(=O)CCC12CCN(C(=O)CC1CC1)CC2 : what is it?
**A:** -15

**Q:** Reported Percent Effect for CCOCCN1CCn2c(C)nnc2C1 : what is it?
**A:** 12.7

**Q:** Reported Percent Effect for Cc1ccccc1C(=O)N1CCC(n2nnc3cc(F)ccc32)CC1 : what is it?
**A:** 11.5

**Q:** Reported Percent Effect for CCc1ccc(CN2CCC3(CC2)CNC(=O)CO3)o1 : what is it?
**A:** -3.66

**Q:** Reported Percent Effect for COc1cccc(C(=O)N2CCCC(c3cc(C)[nH]n3)C2)c1OC (stereo not drawn) : what is it?
**A:** 16.1

**Q:** Reported Percent Effect for CCc1ccc(O)c(C(=O)NC2CCN(Cc3ccncc3)CC2)c1 : what is it?
**A:** 8.43

**Q:** Reported Percent Effect for Cc1cc(C)n(CC2CCCN2CC(=O)N(C)Cc2cnn(C)c2)n1 (stereo not drawn) : what is it?
**A:** 13.6

**Q:** Reported Percent Effect for COc1ccc(C)cc1CSCCn1nc2ccccn2c1=O : what is it?
**A:** 21.2

**Q:** Reported Percent Effect for c1cnn(CC2CN(Cc3noc(C4CC4)n3)CCO2)c1 (stereo not drawn) : what is it?
**A:** 7.69

**Q:** Reported Percent Effect for Cc1nc(N2CCN(C(=O)C(C)(C)C)CC2)cc(-n2cnc(C)c2C)n1 : what is it?
**A:** 8.64

**Q:** Reported Percent Effect for COCCN1CCCC12CCN(C(=O)CC1CCCC1)CC2 : what is it?
**A:** 12.5

**Q:** Reported Percent Effect for COc1ccc(C2CC(=O)Nc3c2nc2n3CCCC2)cc1O (stereo not drawn) : what is it?
**A:** 14.6

**Q:** Reported Percent Effect for CCc1noc(CNc2cc(F)ccc2OCC2CCCO2)n1 (stereo not drawn) : what is it?
**A:** 0

**Q:** Reported Percent Effect for O=C1CC(c2ccncc2)C2(CCN(C(=O)c3ccc[nH]3)CC2)N1 (stereo not drawn) : what is it?
**A:** 15.4

**Q:** Reported Percent Effect for CCN(CC1CCCO1)C(=O)Nc1cc(OC)c(OC)cc1C (stereo not drawn) : what is it?
**A:** 21.5

**Q:** Reported Percent Effect for CSCC(=O)N1CCCC(n2ccnc2C(C)C)C1 (stereo not drawn) : what is it?
**A:** 18.5

**Q:** Reported Percent Effect for Cc1c(O)oc(-c2ccc(Br)cc2)nc1=O : what is it?
**A:** 15

**Q:** Reported Percent Effect for CC(C)c1cc(NCC(O)c2ccc(F)cc2)n2nccc2n1 (stereo not drawn) : what is it?
**A:** 7.32

**Q:** Reported Percent Effect for CN(C)C(=O)CN1C(=O)CCC12CCN(Cc1ccc(F)cc1)CC2 : what is it?
**A:** 15

**Q:** Reported Percent Effect for c1coc(-c2noc(CN3CCCC(Cn4cncn4)C3)n2)c1 (stereo not drawn) : what is it?
**A:** 11.4

**Q:** Reported Percent Effect for O=C(NCCOc1ccc2c(c1)CCC2)N1CCS(=O)(=O)CC1 : what is it?
**A:** -1.21

**Q:** Reported Percent Effect for CC(C)(C)OC(=O)CNC(=O)CCc1nnc(-c2ccsc2)o1 : what is it?
**A:** 3.7

**Q:** Reported Percent Effect for Cn1c(C(F)(F)F)nn(CCNC(=O)NCc2ccccc2)c1=O : what is it?
**A:** 12.5

**Q:** Reported Percent Effect for CC(NC(=O)NCCCn1ccnc1)c1ccc2c(c1)OCCCO2 (stereo not drawn) : what is it?
**A:** 1.22

---

For each record, write down the corresponding Percent Effect.
Target: Arginase-2, mitochondrial (Homo sapiens) (UniProt P78540)
Sequence (whole entry): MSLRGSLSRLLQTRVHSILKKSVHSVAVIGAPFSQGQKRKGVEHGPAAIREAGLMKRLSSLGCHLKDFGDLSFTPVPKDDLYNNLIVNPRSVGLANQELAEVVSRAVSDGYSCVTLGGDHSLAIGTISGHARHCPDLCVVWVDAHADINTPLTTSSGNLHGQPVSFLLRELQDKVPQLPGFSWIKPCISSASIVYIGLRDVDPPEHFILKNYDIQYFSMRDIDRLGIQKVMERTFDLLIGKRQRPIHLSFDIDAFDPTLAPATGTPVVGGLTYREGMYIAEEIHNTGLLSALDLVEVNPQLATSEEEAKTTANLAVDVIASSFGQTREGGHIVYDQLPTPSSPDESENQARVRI
Test: in vitro enzyme assay to detect the production of urea directly proportional to the activity of Arginase II; also: in the data most compounds retested in dose-response had high values
Type: functional
Design: scale not given: direction of the effect not stated beside the values
Settings: 33.3 µM
Note: unit % is implicit; provide only the numeric part.

**Q:** Reported Percent Effect for Cc1ccc(N(C)C2CCN(C(=O)c3ccsc3)CC2)nn1 : what is it?
**A:** -7.47

**Q:** Reported Percent Effect for Cc1ccc(C(=O)Nc2cn[nH]c2)cn1 : what is it?
**A:** -3.45

**Q:** Reported Percent Effect for CC(C)c1cc(NCC(C)N2CCCC2)n2nccc2n1 (stereo unspecified) : what is it?
**A:** -1.43

**Q:** Reported Percent Effect for CC(C)c1nnc2n1CCN(CC(=O)N1CCc3ccccc3C1)C2 : what is it?
**A:** -1.53

**Q:** Reported Percent Effect for Cc1nn(C)c2c(NCc3ccccc3F)nc(C3CC3)nc12 : what is it?
**A:** -63.5

**Q:** Reported Percent Effect for O=C(c1ccc[nH]1)N1CCCC(c2cc(C(F)(F)F)[nH]n2)C1 (stereo unspecified) : what is it?
**A:** -1.08
